TEST SYSTEM: Integrin alpha-V/beta-5 (Homo sapiens, UniProt P06756+P18084)
EXPERIMENTAL DETAILS: Competitive inhibition of biotinylated vitronectin to integrin alphaVbeta5 receptor after 3 hrs by microplate reader analysis
Hi there, I'd appreciate the recorded IC50 for every entry that follows.
Answers are plain numbers, in nM.

INSERT INTO results (sample_smiles, test_system, unit_tag, numeric_value) VALUES
  ('N=C(N)NCCC[C@@H]1NC(=O)C[C@H]2C(=O)N[C@H](CNC(=O)[C@H](CC(=O)O)NC(=O)CNC1=O)C(=O)N2Cc1ccccc1', 'Integrin alpha-V/beta-5 (Homo sapiens, UniProt P06756+P18084)', 'nM', 216),
  ('N=C(N)NCCC[C@@H]1NC(=O)[C@@H]2CC[C@H]3CCC[C@@H](NC(=O)[C@H](CC(=O)O)NC(=O)CNC1=O)C(=O)N32', 'Integrin alpha-V/beta-5 (Homo sapiens, UniProt P06756+P18084)', 'nM', 1.4),
  ('CC(=O)O[C@H]1C(=O)[C@@]2(C)[C@H]([C@H](OC(=O)c3ccccc3)[C@]3(O)C[C@H](OC(=O)[C@H](OC(=O)CCC(=O)NCc4ccc(CN5C(=O)[C@@H]6CNC(=O)[C@H](CC(=O)O)NC(=O)CNC(=O)[C@H](CCCNC(=N)N)NC(=O)C[C@@H]5C(=O)N6)cc4)[C@@H](NC(=O)c4ccccc4)c4ccccc4)C(C)=C1C3(C)C)[C@]1(OC(C)=O)CO[C@@H]1C[C@@H]2O', 'Integrin alpha-V/beta-5 (Homo sapiens, UniProt P06756+P18084)', 'nM', 22);

The following molecules each have a reported value; give each one's IC50.
1. N=C(N)NCCC[C@@H]1NC(=O)C[C@H]2NC(=O)[C@H](CNC(=O)[C@H](CC(=O)O)NC(=O)CNC1=O)N(Cc1ccccc1)C2=O
2. N=C(N)NCCC[C@@H]1NC(=O)C[C@@H]2NC(=O)[C@@H](CNC(=O)[C@H](CC(=O)O)NC(=O)CNC1=O)N(Cc1ccccc1)C2=O

[149, 114]

----------
TEST SYSTEM: Integrin alpha-V/beta-3 (Homo sapiens, UniProt P05106+P06756)
EXPERIMENTAL DETAILS: Competitive inhibition of biotinylated vitronectin to integrin alphaVbeta3 receptor after 3 hrs by microplate reader analysis
PROPERTY LABEL: IC50 (nM)
One number for each entry, in nM.

The cases that follow already have their IC50 on record.
INSERT INTO results (molecule, unit_tag, numeric_value) VALUES
  ('NC(N)=NCCC[C@@H]1NC(=O)C[C@H]2C(=O)N[C@H](CNC(=O)[C@H](CC(=O)O)NC(=O)CNC1=O)C(=O)N2Cc1ccc(CNC(=O)CCC(=O)O)cc1', 'nM', 4.1),
  ('N=C(N)NCCC[C@@H]1NC(=O)[C@@H]2CC[C@H]3CCC[C@@H](NC(=O)[C@H](CC(=O)O)NC(=O)CNC1=O)C(=O)N32', 'nM', 1),
  ('CC(=O)O[C@H]1C(=O)[C@@]2(C)[C@H]([C@H](OC(=O)c3ccccc3)[C@]3(O)C[C@H](OC(=O)[C@H](OC(=O)CCC(=O)NCc4ccc(CN5C(=O)[C@H]6CC(=O)N[C@@H](CCCNC(=N)N)C(=O)NCC(=O)N[C@@H](CC(=O)O)C(=O)NC[C@H]5C(=O)N6)cc4)[C@@H](NC(=O)c4ccccc4)c4ccccc4)C(C)=C1C3(C)C)[C@]1(OC(C)=O)CO[C@@H]1C[C@@H]2O', 'nM', 5.2),
  ('N=C(N)NCCC[C@@H]1NC(=O)C[C@@H]2C(=O)N(Cc3ccccc3)[C@@H](CNC(=O)[C@H](CC(=O)O)NC(=O)CNC1=O)C(=O)N2Cc1ccccc1 (stereo in doubt; 7a)', 'nM', 0.2),
  ('N=C(N)NCCC[C@@H]1NC(=O)C[C@@H]2C(=O)N(Cc3ccccc3)[C@@H](CNC(=O)[C@H](CC(=O)O)NC(=O)CNC1=O)C(=O)N2Cc1ccccc1 (stereo in doubt; 7b)', 'nM', 0.2);

The following molecules each have a reported value; give each one's IC50.
1. N=C(N)NCCC[C@@H]1NC(=O)C[C@H]2C(=O)N[C@H](CNC(=O)[C@H](CC(=O)O)NC(=O)CNC1=O)C(=O)N2Cc1ccccc1
2. N=C(N)NCCC[C@@H]1NC(=O)C[C@@H]2NC(=O)[C@@H](CNC(=O)[C@H](CC(=O)O)NC(=O)CNC1=O)N(Cc1ccccc1)C2=O
3. NC(N)=NCCC[C@@H]1NC(=O)C[C@@H]2NC(=O)[C@H](CNC(=O)[C@H](CC(=O)O)NC(=O)CNC1=O)N(Cc1ccccc1)C2=O
4. N=C(N)NCCC[C@@H]1NC(=O)C[C@H]2NC(=O)[C@H](CNC(=O)[C@H](CC(=O)O)NC(=O)CNC1=O)N(Cc1ccc(CN)cc1)C2=O.O=C(O)C(F)(F)F
5. N=C(N)NCCC[C@@H]1NC(=O)C[C@H]2C(=O)N(Cc3ccccc3)[C@H](CNC(=O)[C@H](CC(=O)O)NC(=O)CNC1=O)C(=O)N2Cc1ccccc1

1. 7.6
2. 3.2
3. 3.9
4. 26.4
5. 0.2

----------
EXPERIMENTAL DETAILS: Half life in mouse plasma at 10 uM by HPLC analysis
Format: ADME, cell-free
PROPERTY LABEL: half-life at 10 µM (h)
Numbers only, in h.

Data point: CC(=O)O[C@H]1C(=O)[C@@]2(C)[C@H]([C@H](OC(=O)c3ccccc3)[C@]3(O)C[C@H](OC(=O)[C@H](OC(=O)CCC(=O)NCc4ccc(CN5C(=O)[C@H]6CC(=O)N[C@@H](CCCNC(=N)N)C(=O)NCC(=O)N[C@@H](CC(=O)O)C(=O)NC[C@H]5C(=O)N6)cc4)[C@@H](NC(=O)c4ccccc4)c4ccccc4)C(C)=C1C3(C)C)[C@]1(OC(C)=O)CO[C@@H]1C[C@@H]2O ; half-life at 10 µM = 2.75

----------
Tested on: U2OS
EXPERIMENTAL DETAILS: Cytotoxicity against human U2OS cells after 72 hrs by coulter counter analysis
Type: functional, cell-based
PROPERTY LABEL: IC50 (nM)
One number for each entry, in nM.

The cases that follow already have their IC50 on record.
INSERT INTO results (compound, property_label, unit_tag, numeric_value) VALUES
  ('CC(=O)O[C@H]1C(=O)[C@@]2(C)[C@H]([C@H](OC(=O)c3ccccc3)[C@]3(O)C[C@H](OC(=O)[C@H](O)[C@@H](NC(=O)c4ccccc4)c4ccccc4)C(C)=C1C3(C)C)[C@]1(OC(C)=O)CO[C@@H]1C[C@@H]2O [PACLITAXEL]', 'IC50', 'nM', 3.4),
  ('CC(=O)O[C@H]1C(=O)[C@@]2(C)[C@H]([C@H](OC(=O)c3ccccc3)[C@]3(O)C[C@H](OC(=O)[C@H](OC(=O)CCC(=O)NCc4ccc(CN5C(=O)[C@@H]6CC(=O)N[C@@H](CCCNC(=N)N)C(=O)NCC(=O)N[C@@H](CC(=O)O)C(=O)NC[C@@H]5C(=O)N6)cc4)[C@@H](NC(=O)c4ccccc4)c4ccccc4)C(C)=C1C3(C)C)[C@]1(OC(C)=O)CO[C@@H]1C[C@@H]2O', 'IC50', 'nM', 2.2),
  ('CC(=O)O[C@H]1C(=O)[C@@]2(C)[C@H]([C@H](OC(=O)c3ccccc3)[C@]3(O)C[C@H](OC(=O)[C@H](OC(=O)CCC(=O)NCc4ccc(CN5C(=O)[C@@H]6CNC(=O)[C@H](CC(=O)O)NC(=O)CNC(=O)[C@H](CCCNC(=N)N)NC(=O)C[C@@H]5C(=O)N6)cc4)[C@@H](NC(=O)c4ccccc4)c4ccccc4)C(C)=C1C3(C)C)[C@]1(OC(C)=O)CO[C@@H]1C[C@@H]2O', 'IC50', 'nM', 5.7);

The following compounds each have a reported value; give each one's IC50.
1. CC(=O)O[C@H]1C(=O)[C@@]2(C)[C@H]([C@H](OC(=O)c3ccccc3)[C@]3(O)C[C@H](OC(=O)[C@H](OC(=O)CCC(=O)NCc4ccc(CN5C(=O)[C@H]6CC(=O)N[C@@H](CCCNC(=N)N)C(=O)NCC(=O)N[C@@H](CC(=O)O)C(=O)NC[C@H]5C(=O)N6)cc4)[C@@H](NC(=O)c4ccccc4)c4ccccc4)C(C)=C1C3(C)C)[C@]1(OC(C)=O)CO[C@@H]1C[C@@H]2O
2. CC(=O)O[C@H]1C(=O)[C@@]2(C)[C@H]([C@H](OC(=O)c3ccccc3)[C@]3(O)C[C@H](OC(=O)[C@H](OC(=O)CCC(=O)NCc4ccc(CN5C(=O)[C@H]6CNC(=O)[C@H](CC(=O)O)NC(=O)CNC(=O)[C@H](CCCN=C(N)N)NC(=O)C[C@H]5C(=O)N6)cc4)[C@@H](NC(=O)c4ccccc4)c4ccccc4)C(C)=C1C3(C)C)[C@]1(OC(C)=O)CO[C@@H]1C[C@@H]2O

1. 12.8
2. 6.8

Reference source: ChEMBL document CHEMBL2176897
